Every entry's value here was drawn from patent US20260078130A1.

target: human enzyme NAMPT (full length) (Homo sapiens, UniProt P43490); construct: human enzyme NAMPT (full length); experiment: NMN fluorescence biochemical assay (stimulation of NMN synthesis by NAMPT); conditions: fold change of maximal activation compared to DMSO
Sequence (P43490 whole entry): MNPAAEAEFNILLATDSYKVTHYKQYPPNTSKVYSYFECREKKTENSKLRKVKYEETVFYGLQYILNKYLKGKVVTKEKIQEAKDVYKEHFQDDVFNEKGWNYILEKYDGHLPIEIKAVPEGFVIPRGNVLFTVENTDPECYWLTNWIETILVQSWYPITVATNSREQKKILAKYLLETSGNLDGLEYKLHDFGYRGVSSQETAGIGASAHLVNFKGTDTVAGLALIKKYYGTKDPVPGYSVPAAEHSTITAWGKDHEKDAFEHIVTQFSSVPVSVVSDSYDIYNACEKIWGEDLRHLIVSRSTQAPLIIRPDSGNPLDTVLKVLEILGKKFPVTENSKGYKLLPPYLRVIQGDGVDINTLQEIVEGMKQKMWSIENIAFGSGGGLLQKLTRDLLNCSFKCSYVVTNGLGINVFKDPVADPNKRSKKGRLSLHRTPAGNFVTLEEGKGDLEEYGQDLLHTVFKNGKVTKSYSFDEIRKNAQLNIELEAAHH
MEASURED_QUANTITY: Enzymatic Emax

* Cn1ncc(Cl)c1CC1c2cc(Cl)cc(F)c2C(=O)N1CC1CC2(CNC(=O)O2)C1 (stereo not drawn) | A (A>3)
* O=C1c2ccccc2C(Cc2ncccc2Br)N1C/C(F)=C/c1c[nH]nn1 (stereo not drawn) | B (3≥B>2)
* Cn1ncc(Cl)c1CC1c2ccccc2C(=O)N1CC#Cc1cn[nH]c1 (stereo not drawn) | B (3≥B>2)
* Cc1cncc(C#N)c1CC1c2ccccc2C(=O)N1Cc1ccc2[nH]nnc2c1 (stereo not drawn) | B (3≥B>2)
* COc1ccc(CN2C(=O)c3ccc(Cl)cc3C2Cc2c(C)ncnc2C#N)cn1 (stereo not drawn) | B (3≥B>2)
* CC1c2cc(CN3CC4(CNC4)C3)ccc2C(=O)N1Cc1ccc2[nH]c(=O)oc2c1 (stereo not drawn) | A (A>3)
* Cn1ncc(Cl)c1CC1c2cc(Cl)ncc2C(=O)N1CC1CC2(CNC(=O)O2)C1 (stereo not drawn) | C (2≥C)
* Cn1ncc(Cl)c1CC1c2ccccc2C(=O)N1CC1CC2(CNC(=S)O2)C1 (stereo not drawn) | B (3≥B>2)
* CC1c2cc(NC3CC4(COC4)C3)ccc2C(=O)N1Cc1ccc2[nH]c(=O)oc2c1 (stereo not drawn) | B (3≥B>2)
* Cn1ncc(Cl)c1CC1c2cc(C3CC3)ccc2C(=O)N1CC1CC2(CNC(=O)O2)C1 (stereo not drawn) | B (3≥B>2)
* Cc1cccc2c1CN(Cc1ccc(O)cc1)C2=O | B (3≥B>2)
* C[C@H]1c2cc(C#N)ccc2C(=O)N1Cc1ccc2[nH]c(=O)oc2c1 (single isomer, unassigned) | B (3≥B>2)
* Cn1cnc(CC2c3ccccc3C(=O)N2Cc2ccc3[nH]c(=O)oc3c2)c1Cl (stereo not drawn) | A (A>3)
* Cc1ccnc(C#N)c1CC1c2ccccc2C(=O)N1C/C=C/c1c[nH]nn1 (stereo not drawn) | B (3≥B>2)
* Cn1ncc(Cl)c1CC1c2ccc(F)cc2C(=O)N1CC1CC2(CNC(=O)O2)C1 (stereo not drawn) | B (3≥B>2)
* Cc1cccc2c1C(Cc1c(Cl)ccnc1C#N)N(Cc1ccc3[nH]c(=O)oc3c1)C2=O (stereo not drawn) | A (A>3)
* Cn1nc(C(F)F)c(Cl)c1CC1c2ccccc2C(=O)N1Cc1ccc2[nH]nnc2c1 (stereo not drawn) | B (3≥B>2)
* Cc1scnc1CC1c2ccccc2C(=O)N1Cc1ccc2[nH]c(=O)oc2c1 (stereo not drawn) | A (A>3)
* O=C1c2ccccc2C(Cc2ccccc2Cl)N1Cc1ccc2[nH]c(=O)oc2c1 (stereo not drawn) | A (A>3)
* COC1CN(c2ccc3c(c2)C(C)N(Cc2ccc4[nH]c(=O)oc4c2)C3=O)C1 (stereo not drawn) | B (3≥B>2)
* COC1CCN(Cc2ccc3c(c2)[C@H](C)N(Cc2ccc4[nH]c(=O)oc4c2)C3=O)C1 (single isomer, unassigned) | B (3≥B>2)
* O=C1c2ccccc2C(Cc2ncccc2Br)N1Cc1ccc2[nH]c(=O)oc2c1F (stereo not drawn) | A (A>3)
* Cn1c2ccccc2c(=O)n1Cc1ccc2[nH]nnc2c1 | C (2≥C)
* CNC(=O)c1ccc2c(c1)C(C)N(Cc1ccc3[nH]c(=O)oc3c1)C2=O (stereo not drawn) | B (3≥B>2)
* O=C1c2ccccc2C(Cc2nccc(F)c2Br)N1Cc1ccc2[nH]c(=O)oc2c1 (stereo not drawn) | A (A>3)
* Cn1ncc(Cl)c1CC1c2cc(CN3CCOCC3)ccc2C(=O)N1CC1CC2(CNC(=O)O2)C1 (stereo not drawn) | B (3≥B>2)
* O=C1c2ccccc2C(Cc2ncccc2F)N1Cc1ccc2[nH]c(=O)oc2c1 (stereo not drawn) | A (A>3)
* O=C1c2ccccc2C(Cc2ncccc2Br)N1CCc1cn[nH]c1 (stereo not drawn) | C (2≥C)
* Cc1ccc2c(c1)C(Cc1c(Cl)cnn1C)N(CC1CC3(CNC(=O)O3)C1)C2=O (stereo not drawn) | B (3≥B>2)
* CN(C)CCOc1nn(C)c(CC2c3ccccc3C(=O)N2CC2CC3(CNC(=O)O3)C2)c1Cl (stereo not drawn) | C (2≥C)
* C#Cc1cccnc1CC1c2ccccc2C(=O)N1Cc1ccc2[nH]c(=O)oc2c1 (stereo not drawn) | A (A>3)
* O=C1c2ccccc2C(C2CC2)N1Cc1ccc2[nH]c(=O)oc2c1 (stereo not drawn) | A (A>3)
* O=C1c2ccccc2C(Cc2ncccc2Br)N1Cc1ccc2[nH]nnc2c1F (stereo not drawn) | A (A>3)
